- assayInfo: Natriuretic polypeptide receptor (hNpr1) antagonism - Pilot counterscreen GloSensor control cell line (AID 1347045)
- protocolConditions: HEK293 cGMP GloSensor cells, SNP-stimulated luminescence, 20 min; series mostly up to 38.3 µM
Inconclusive results are not listed. Calls of active or inactive are those of the source. Calls come from the whole dose curve.
Possible outcomes: active, inactive

compound=C[C@H](Cc1ccc2c(c1)OC(C(=O)O)(C(=O)O)O2)NC[C@H](O)c1cccc(Cl)c1 label=inactive
compound="CN1C2CCC1CC(OC(c1ccccc1)c1ccccc1N)C2 (centres undefined)" label=inactive
compound=COc1ccc2[nH]cc(CCN)c2c1 label=inactive
compound=O=[N+]([O-])c1cc(O)c(O)c([N+](=O)[O-])c1 label=inactive
compound=CCS(=O)(=O)Nc1cccc(C(=C2CCCCC2)c2cnc[nH]2)c1 label=inactive
compound="NCC(O)c1cc(O)c(O)cc1F (centres undefined)" label=inactive
compound=NCCCP(=O)(O)O label=inactive
compound=COc1ccc2c(c1)[C@@]13CCCC[C@H]1[C@@H](C2)NCC3 label=inactive
compound="NCC(CP(=O)(O)O)c1ccc(Cl)cc1 (centres undefined)" label=inactive
compound=CC(=O)OCC1=C(C(=O)O)N2C(=O)[C@@H](NC(=O)CCC[C@@H](N)C(=O)O)[C@H]2SC1 label=inactive
compound="CC(C)(C)c1o[nH]c(=O)c1CC(N)C(=O)O (centres undefined)" label=inactive
compound=C=CCN1CC[C@]23c4c5ccc(O)c4O[C@H]2/C(=N/NC(=O)c2ccccc2)CC[C@@]3(O)[C@H]1C5 label=inactive
compound="COc1cc(CC(C)N)c(OC)cc1I (centres undefined)" label=inactive
compound=CCCn1c(C)c(C(=O)c2ccc3ccccc3c2)c2ccccc21 label=inactive
compound=C[N+](C)(C)CC#CCN1CCCC1=O label=inactive
compound=CC(C)(C)c1cc(C=C(C#N)C#N)cc(C(C)(C)C)c1O label=active
compound="CCCN(CCC)C1CCc2cccc(O)c2C1 (centres undefined)" label=inactive
compound="NC(Cc1cc(O)c(O)cc1O)C(=O)O (centres undefined)" label=inactive
compound=NC(=O)c1cc(N2CC2)c([N+](=O)[O-])cc1[N+](=O)[O-] label=inactive
compound=CCN1C[C@@]2(COC)C3[C@@H](OC)C4[C@@H]1C3([C@@H]1C[C@]3(O)[C@H](OC(=O)c5ccccc5)[C@@H]1[C@]4(OC(C)=O)[C@@H](O)[C@@H]3OC)[C@H](OC)C[C@H]2O label=inactive
compound=CCCN1CCC[C@@H](c2cccc(O)c2)C1 label=inactive
compound=C=CCN(C1=NCCN1)c1c(Cl)cccc1Cl label=inactive
compound=NNC(=O)c1ccc(O)cc1 label=inactive
compound=CC(C)NP(=O)(NC(C)C)OP(=O)(NC(C)C)NC(C)C label=inactive

----------
- measuredOn: Luciferin 4-monooxygenase (Photinus pyralis)
- assayInfo: Biochemical firefly luciferase enzyme assay for NPC (AID 624030); note: nearly all actives have a fitted effect of over 70% in size
- protocolConditions: purified P. pyralis luciferase, luminescence, 5 min; series mostly up to 58.6 µM
Inconclusive results are not listed. Active and inactive are the calls of the source. Calls come from the whole dose curve; as a rule, active = well fitted inhibition curve with a large enough effect; inconclusive = small, poorly fitted or top-dose-only effect; inactive = flat fitted curve, though single readings scatter.
Possible outcomes: active, inactive

compound="C[N+]1(C)CCCCC1COC(=O)C(O)(c1ccccc1)c1ccccc1 (stereo not given)" label=inactive
compound="O=C1CCCCC1CN1CCCCC1 (stereo not given)" label=inactive
compound=ClC=C(Cl)Cl label=inactive
compound=COc1ccc2c3c1O[C@H]1C(=O)CC[C@H]4[C@@H](C2)N(C)CC[C@]314 label=inactive
compound=Cc1ccccc1-n1c(C)nc2ccccc2c1=O label=inactive
compound=[Cl-].[Cl-].[Hg+2] label=active
compound="COc1ccc(OC)c(C(O)C(C)N)c1 (stereo not given)" label=inactive
compound=S=C(S)N1CCNCC1 label=inactive
compound=CC(=O)O[C@H]1CC[C@H]2[C@@H]3CCC4=CC(=O)CCC4=C3C=C[C@]12C label=inactive
compound=[O]=[Cd] label=inactive

Origin of measurements: PubChem BioAssay (NCATS)
